Value source: ChEMBL document CHEMBL4325854

Test system: Staphylococcus aureus
measurementProtocol: Antibiofilm activity against methicillin-resistant Staphylococcus aureus
Format: functional, organism-based
appliedConditions: Staphylococcus aureus
parameterMeasured: IC50 (µM)
Supply the numeric figure in µM, leaving out any unit text.

CCCCCCCc1ccc(NC(=O)CCn2cc(C[C@@]34CNC[C@@H]3Nc3ccccc34)nn2)cc1 | 2.8
CCCCc1ccc(C(=O)NCCn2cc(CCCCc3[nH]c(N)nc3-c3cnc4ccccc4c3)nn2)cc1 | 4.2
CCCCCCCCCCCCCCNC(=O)Cn1cc(C[C@@]23CNC[C@@H]2Nc2ccccc23)nn1 | 5.4
CCCCc1ccc(C(=O)NCCn2cc(CCCCc3[nH]c(N)nc3-c3ccoc3)nn2)cc1 | 7.2
CCCCCCc1ccc(NC(=O)CCn2cc(C[C@@]34CNC[C@@H]3Nc3ccccc34)nn2)cc1 | 3.4
CCCCc1ccc(C(=O)NCCn2cc(CCCCc3[nH]c(N)nc3-c3ccc4c(c3)OCO4)nn2)cc1 | 3.7

Let's switch to this compound now.
[ask] Data request, read-out IC50, for `CCCc1ccc(-c2[nH]c(N)nc2CCCCCc2cn(C/C(C)=C/c3ccccc3)nn2)cc1`
[reply] 1.42
